Assignment: determine reported KM for the given variants.
B1: glmS ribozyme (parent)
chain: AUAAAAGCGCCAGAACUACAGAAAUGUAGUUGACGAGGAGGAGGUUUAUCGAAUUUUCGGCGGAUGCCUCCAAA

# Variants of: B1
# procedure-summary: KM; higher = weaker cofactor use; RNA array
# reported-conditions: with glucosamine-6-phosphate
Give bare numbers, in µM.

• AUAAAAGCGCCAGAACUACAGAAAUGUAGUUGACGAGGAGGAGGAUUAUCGAAUUUUCGGCGGAUGCCUCUAAA [U45A C71U] = 2060

Give me KM for each of these variants, listed below.
1. AUAAAAGCGCCAGAACUACAGAAAUGUAGUUGACGAGGAGGAGGUUUAUCGUAUUUUCGGCGGAUGCCCCCAAA [A52U U69C]
2. AUAAAAGCGCCAGAACUACAGAAAUGUAGUUGACGAGGAGGAGGUUUAUCGACUUUUCGGCGGAUGCCUUCAAA [A53C C70U]
3. AUAAAAGCGCCAGAAUUACAGAAAUGUAGUUGACGAGGAGGAGGUUUAUCGUAUUUUCGGCGGAUGCCUCCAAA [C16U A52U]
4. AUAAAAGCGCCAUAACUACAGAAAUGUAGUUGACGAGGCGGAGGUUUAUCGAAUUUUCGGCGGAUGCCUCCAAA [G13U A39C]

### Response
1: 1990; 2: 2220; 3: 5030; 4: 4490
